Reported values of PHD Inhibition (pIC50) for individual entries
Target: PHD2 enzyme (residues 181-417) (Homo sapiens (Human), UniProt Q9GZT9)
Sequence (Q9GZT9 181-417): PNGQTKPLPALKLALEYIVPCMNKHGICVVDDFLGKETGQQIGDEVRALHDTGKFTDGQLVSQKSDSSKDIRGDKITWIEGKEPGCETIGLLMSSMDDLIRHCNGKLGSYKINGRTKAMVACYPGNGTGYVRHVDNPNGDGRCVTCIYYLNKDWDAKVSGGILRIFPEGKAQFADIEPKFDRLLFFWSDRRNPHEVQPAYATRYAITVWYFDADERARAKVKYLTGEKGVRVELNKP
Assay: Inhibition of PHD enzyme (LC/MS peptide hydroxylation assay)
Type: biochemical
Details: PHD2 (residues 181-417) 5 nM, 60 min pre-incubation; -log(IC50), IC50 molar
Measure: PHD Inhibition (pIC50)

Molecule | Reading
CCOCCNC(=O)c1ccc(-n2ncc(-c3ccc(C#N)cc3C)c2O)nc1 | 7.24
COc1cc(-c2cnn(-c3ccc(C(=O)NC(CO)C4CCOC4)cn3)c2O)ccn1 (centres unmarked) | 6.99
Cc1c(-c2cnn(-c3ccc(C(=O)N4CC5(CN(C)C5)C4)cn3)c2O)ccc(C#N)c1F | 7.60
COc1cc(-c2cnn(-c3ccc(C(=O)N[C@H]4CC[C@@H](O)CC4)cn3)c2O)ccn1 | 7.28
N#Cc1ccc(-c2cnn(-c3ccc(C(=O)NC4CC(F)(F)C4)cn3)c2O)cc1 | 6.77
COCC1(CNC(=O)c2ccc(-n3ncc(-c4ccnc(OC)c4)c3O)nc2)CCCC1 | 8.4
COCCCNC(=O)c1ccc(-n2ncc(-c3ccc(C#N)c(F)c3C)c2O)nc1 | 8.49
COCC1(NC(=O)c2ccc(-n3ncc(-c4ccnc(OC)c4)c3O)nc2)CCCC1 | 7.3
Cc1c(-c2cnn(-c3ccc(C(=O)N4CCN(C)C5(CC5)C4)cn3)c2O)ccc(C#N)c1F | 8.54
CC1CCCCN1CCCNC(=O)c1ccc(-n2ncc(-c3ccc(C#N)cc3)c2O)nc1 (centres unmarked) | 6.95
COCC(C)(C)NC(=O)c1ccc(-n2ncc(-c3ccnc(OC)c3)c2O)nc1 | 7.03
CNC(=O)c1cnc(-n2ncc(-c3ccc(C#N)cc3)c2O)cc1C | 7.06
CC(NC(=O)c1ccc(-n2ncc(-c3ccc(C#N)cc3)c2O)nc1)C1CCCO1 (centres unmarked) | 7.22
N#Cc1ccc(-c2cnn(-c3ccc(C(=O)NC4CC5(COC5)C4)cn3)c2O)cc1 | 7.54
Cc1cc(C#N)ccc1-c1cnn(-c2ccc(C(=O)N3CC(N(C)C4CCC4)C3)cn2)c1O | 8.39
Cc1cc(C#N)ccc1-c1cnn(-c2ccc(C(=O)N3CCC(N4CCOCC4)CC3)cn2)c1O | 8.31
Cc1cc(-n2ncc(-c3ccc(C#N)cc3)c2O)ncc1C(=O)N[C@H]1CCOC1 | 6.89
Cc1cc(C#N)ccc1-c1cnn(-c2ccc(C(=O)N3CCN(C4CC4)[C@@H](C)C3)cn2)c1O | 8.20
CN1CC(NC(=O)c2ccc(-n3ncc(-c4ccc(C#N)cc4)c3O)nc2)C1 | 6.68
Cc1cc(C#N)ccc1-c1cnn(-c2ccc(C(=O)N[C@H]3CC[C@H](O)CC3)cn2)c1O [Example 139] | 7.36
CNC(=O)c1ccc(-n2ncc(-c3ccnc(OC)c3)c2O)nc1 | 7.9
Cc1cc(C#N)ccc1-c1cnn(-c2ccc(C(=O)N3CC[C@H](N(C)C)C3)cn2)c1O | 8.11
N#Cc1ccc(-c2cnn(-c3ccc(C(=O)NC4CCCC4)cn3)c2O)cc1 | 7.12
